- protocol.text: Cell Viability - LYMP2-006 (AID 978);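 also: cells exposed to compound for 24 hours; nearly all actives have a fitted effect of over 60% in size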
- experimental.context: LYMP2-006 lymphoblastoid cell viability, qHTS; series mostly up to 92.2 µM
Results filed as inconclusive are left out. Active and inactive are the calls of the source. Calls follow the shape of the dose curve; as a rule, active = well fitted cell-killing curve with a large enough effect; inconclusive = small, poorly fitted or top-dose-only effect; inactive = flat fitted curve, though single readings scatter.
Labels: TRUE = active, FALSE = inactive

>  <input.smiles>
NS(=O)(=O)c1cc(C(=O)O)c(NCc2ccco2)cc1Cl

>  <group.label>
FALSE

$$$$
>  <input.smiles>
CS(=O)(=O)OCCCCOS(C)(=O)=O

>  <group.label>
FALSE

$$$$
>  <input.smiles>
COc1c2occc2cc2ccc(=O)oc12

>  <group.label>
FALSE

$$$$
>  <input.smiles>
Nc1ccc(S(N)(=O)=O)cc1

>  <group.label>
FALSE

$$$$
>  <input.smiles>
CN(C)c1ccc2nc3ccc(=[N+](C)C)cc-3sc2c1

>  <group.label>
TRUE

$$$$
>  <input.smiles>
c1ccc2[nH]c(-c3cscn3)nc2c1

>  <group.label>
FALSE

$$$$
>  <input.smiles>
Cc1ccc(C)c(OCCCC(C)(C)C(=O)O)c1

>  <group.label>
FALSE

$$$$

* * *

- System: MKL-2
- protocol.text: qHTS assay to identify novel small-molecules to repurpose for Merkel cell carcinoma treatment (AID 1296009); also: nearly all actives have a fitted effect of over 60% in size; also: potency is read from the fitted curve at half-maximal effect
- experimental.context: MCC and control cell lines, CellTiter-Glo viability, 72 h; series mostly up to 46 µM
- Description: MCC is a rare and aggressive neuroendocrine skin cancer with limited treatment options. Approximately 80% of MCCs have the Merkel cell polyomavirus (MCPyV) DNA integrated into the host genome (virus-positive: VP-MCC) and viral oncogenes drive oncogenesis. The remaining MCCs are virus-negative (VN-MCC) and are caused by UV mutagenesis. […] Using cell viability as a readout (CellTiter-Glo assay) we found both overlapping and distinct drugs that can be repurposed for the treatment of VP-MCC and VN-MCC. […]
Inconclusive results are not listed. Calls of active or inactive are those of the source. Calls come from the whole dose curve; as a rule, active = well fitted inhibition curve with a large enough effect; inconclusive = small, poorly fitted or top-dose-only effect; inactive = flat fitted curve, though single readings scatter.
readout.kind: Potency

>  <compound>
C[C@H](Cc1ccc(O)c(O)c1)[C@@H](C)Cc1ccc(O)c(O)c1

>  <readout.kind>
Potency

>  <result>
18700 nM (active)

$$$$
>  <compound>
Oc1ccc(OCc2ccccc2)cc1

>  <readout.kind>
Potency

>  <result>
inactive

$$$$
>  <compound>
Nc1nc(OCc2ccccc2)c2[nH]cnc2n1

>  <readout.kind>
Potency

>  <result>
inactive

$$$$
>  <compound>
COC(=O)N[C@H](C(=O)N[C@@H](Cc1ccccc1)[C@@H](O)CN(Cc1ccc(-c2ccccn2)cc1)NC(=O)[C@@H](NC(=O)OC)C(C)(C)C)C(C)(C)C

>  <readout.kind>
Potency

>  <result>
inactive

$$$$
>  <compound>
CCOC(=O)C1=C(O)C(=O)N(Cc2ccccc2)C1

>  <readout.kind>
Potency

>  <result>
inactive

$$$$
>  <compound>
Nc1ccn([C@@H]2O[C@H](CO)[C@@H](O)C2O)c(=O)n1 (stereo not given in full)

>  <readout.kind>
Potency

>  <result>
inactive

$$$$
>  <compound>
CN(C)CCCC1(c2ccc(F)cc2)OCc2cc(C#N)ccc21 (stereo not given)

>  <readout.kind>
Potency

>  <result>
inactive

$$$$
>  <compound>
CC[C@]1(O)C[C@H]2CN(CCc3c([nH]c4ccccc34)[C@@](C(=O)OC)(c3cc4c(cc3OC)N(C=O)[C@H]3[C@@](O)(C(=O)OC)[C@H](OC(C)=O)[C@]5(CC)C=CCN6CC[C@]43[C@@H]65)C2)C1

>  <readout.kind>
Potency

>  <result>
11.9 nM (active)

$$$$
>  <compound>
CCOC(=O)c1c(C)n(C)c2ccc(O)cc12

>  <readout.kind>
Potency

>  <result>
inactive

$$$$
>  <compound>
Cc1cccc(-c2[nH]ncc2-c2ccc3ncccc3n2)n1

>  <readout.kind>
Potency

>  <result>
inactive

$$$$
>  <compound>
COc1ccccc1N1CCN(CCN(C(=O)C2CCCCC2)c2ccccn2)CC1

>  <readout.kind>
Potency

>  <result>
inactive

$$$$
>  <compound>
C[C@@H](N)C1CCC(C(=O)Nc2ccncc2)CC1 (stereo not given in full)

>  <readout.kind>
Potency

>  <result>
inactive

$$$$
>  <compound>
Cc1nc2n(c(=O)c1CCN1CCC(c3noc4cc(F)ccc34)CC1)CCCC2

>  <readout.kind>
Potency

>  <result>
inactive

$$$$
>  <compound>
NC(=O)Cc1cccc(C(=O)c2ccccc2)c1N

>  <readout.kind>
Potency

>  <result>
inactive

$$$$
>  <compound>
CCOc1cc(CC(=O)N[C@@H](CC(C)C)c2ccccc2N2CCCCC2)ccc1C(=O)O

>  <readout.kind>
Potency

>  <result>
inactive

$$$$
>  <compound>
Nc1nc(Cl)nc2c1ncn2[C@H]1C[C@H](O)[C@@H](CO)O1

>  <readout.kind>
Potency

>  <result>
418 nM (active)

$$$$
>  <compound>
COc1cc(Nc2c(C#N)cnc3cc(OCCCN4CCN(C)CC4)c(OC)cc23)c(Cl)cc1Cl

>  <readout.kind>
Potency

>  <result>
inactive

$$$$
>  <compound>
CCCCCCCCCCCCCCCCCCCCCCO

>  <readout.kind>
Potency

>  <result>
inactive

$$$$
>  <compound>
O=C(OC1C[C@H]2CC[C@@H](C1)[N+]21CCCC1)C(O)(c1ccccc1)c1ccccc1 (stereo not given in full)

>  <readout.kind>
Potency

>  <result>
inactive

$$$$
>  <compound>
COc1cc2c(N3CCN(C(=O)Nc4ccc(OC(C)C)cc4)CC3)ncnc2cc1OCCCN1CCCCC1

>  <readout.kind>
Potency

>  <result>
inactive

$$$$

* * *

- protocol.text: qHTS to identify inhibitors of the type 1 interferon - major histocompatibility complex class I in skeletal muscle: primary screen against the NCATS Pharmaceutical Collection (AID 1347407);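 also: luminescence of HiBiT knocked into endogenous HLA-B as interferon-induced MHC class I level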
- experimental.context: human skeletal muscle cells, IFN-b-induced MHC-I HiBiT luminescence, 24 h; series mostly up to 45.9 µM
Records with an inconclusive call do not appear. The source made the active and inactive calls. Calls follow the shape of the dose curve; as a rule, active = well fitted inhibition curve with a large enough effect; inconclusive = small, poorly fitted or top-dose-only effect; inactive = flat fitted curve, though single readings scatter.
Classes used: Y for active, N for inactive

>  <compound>
Oc1ccc(OCc2ccccc2)cc1

>  <group.label>
N

$$$$
>  <compound>
COc1cc2nc(N3CCN(C(=O)C4CCCO4)CC3)nc(N)c2cc1OC (centres undefined)

>  <group.label>
N

$$$$
>  <compound>
CCCOc1ccc2nc(NC(=O)OC)[nH]c2c1

>  <group.label>
N

$$$$
>  <compound>
CS(=O)(=O)OCCCCOS(C)(=O)=O

>  <group.label>
N

$$$$
>  <compound>
CC1=C(C)C(=O)C(C(CCCCCC(=O)O)c2ccccc2)=C(C)C1=O (centres undefined)

>  <group.label>
N

$$$$
>  <compound>
NNc1nncc2ccccc12

>  <group.label>
N

$$$$
>  <compound>
Cc1c(OCC(F)(F)F)ccnc1CS(=O)c1nc2ccccc2[nH]1 (centres undefined)

>  <group.label>
N

$$$$
>  <compound>
N=C(N=C(N)N)N1CCOCC1

>  <group.label>
N

$$$$
>  <compound>
O=C(O)c1cccnc1Nc1cccc(C(F)(F)F)c1

>  <group.label>
N

$$$$
>  <compound>
CCN(CC)CCOc1ccc(Cc2ccccc2)cc1

>  <group.label>
N

$$$$
>  <compound>
CC(C)C[C@H](NC(=O)[C@H](Cc1ccccc1)NC(=O)c1cnccn1)B(O)O

>  <group.label>
Y

$$$$
>  <compound>
CCC[C@@H]1C[C@@H](C(=O)N[C@@H]([C@H]2O[C@H](SC)[C@H](O)[C@@H](O)[C@H]2O)[C@@H](C)O)N(C)C1

>  <group.label>
N

$$$$
>  <compound>
COC(=O)N[C@H](C(=O)N[C@@H](Cc1ccccc1)[C@@H](O)CN(Cc1ccc(-c2ccccn2)cc1)NC(=O)[C@@H](NC(=O)OC)C(C)(C)C)C(C)(C)C

>  <group.label>
N

$$$$
>  <compound>
Cc1cc(=O)oc2cc(O)ccc12

>  <group.label>
N

$$$$
>  <compound>
Cc1nccn1CC1CCc2c(c3ccccc3n2C)C1=O (centres undefined)

>  <group.label>
N

$$$$
>  <compound>
CC1(C)NC(=O)N(c2ccc([N+](=O)[O-])c(C(F)(F)F)c2)C1=O

>  <group.label>
N

$$$$
>  <compound>
S=c1nc[nH]c2nc[nH]c12

>  <group.label>
N

$$$$
>  <compound>
Cc1cc2cc3c(C)cc(=O)oc3c(C)c2o1

>  <group.label>
N

$$$$
>  <compound>
O=C(O)c1cn(-c2ccc(F)cc2)c2cc(N3CCNCC3)c(F)cc2c1=O

>  <group.label>
N

$$$$
>  <compound>
O=C(O)CCNC(=O)c1ccc(N=Nc2ccc(O)c(C(=O)O)c2)cc1

>  <group.label>
N

$$$$
>  <compound>
CNC[C@H](O)c1ccc(O)c(O)c1

>  <group.label>
N

$$$$
>  <compound>
C=C(c1ccc(C(=O)O)cc1)c1cc2c(cc1C)C(C)(C)CCC2(C)C

>  <group.label>
N

$$$$
>  <compound>
N=C(N)c1ccc2cc(OC(=O)c3ccc(N=C(N)N)cc3)ccc2c1

>  <group.label>
N

$$$$
>  <compound>
Cc1ccc(S(=O)(=O)NC(=O)NN2CC3CCCC3C2)cc1 (centres undefined)

>  <group.label>
N

$$$$
